target: Short transient receptor potential channel 4 (Mus musculus); assay: positive allosteric modulators of TRPC4, primary screen, cell-based, mouse TRPC4beta, HEK293 mu-opioid, Fluo-4 calcium (AID 2227); conditions: DAMGO EC20, Fluo-4 Ca2+ flux, at 10 µM
In all, about 310,000 compounds went through this assay and about 1,300 (0.42%) were called active.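 How the source made its calls: active means B-score of calcium response area above 5 SD of library B-scores, with initial fluorescence ratio within 5 SD of library; inactive means the rest.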 The entries come from a sample that favours actives as a whole.
Please answer using one outcome listed in yes = active, no = inactive

Take a look at these entries with their results.
                                 mol_smiles  cat
0            CCOC(=O)c1cc2cc3ccccc3cc2oc1=O  yes
1   CC(=O)c1ccccc1OCc1ccc(C(=O)c2ccccc2)cc1   no
2  Cc1ccc(C(=O)COC(=O)c2cccc(N3C(=O)c4c(C)nc5ccccc5c4C3=O)c2)cc1C   no
3  Cc1cccn2c(=O)c(/C=C(\C#N)S(=O)(=O)c3ccc(Cl)cc3)c(N3CCC(C(N)=O)CC3)nc12   no

# ---- query compound ----
Query: Assay outcome for C=CCc1cccc2cc(C(=O)OCC)c(=O)oc12 : what was it?
Response: no
